The following molecules are listed with their measured residual activity values.
biological target: UniProt:O15111; assay: radiometric filter-binding kinase assay, Kinase HotSpot; conditions: compound 0.5 µM; ATP 10 µM
Sequence (O15111 whole entry, looked up): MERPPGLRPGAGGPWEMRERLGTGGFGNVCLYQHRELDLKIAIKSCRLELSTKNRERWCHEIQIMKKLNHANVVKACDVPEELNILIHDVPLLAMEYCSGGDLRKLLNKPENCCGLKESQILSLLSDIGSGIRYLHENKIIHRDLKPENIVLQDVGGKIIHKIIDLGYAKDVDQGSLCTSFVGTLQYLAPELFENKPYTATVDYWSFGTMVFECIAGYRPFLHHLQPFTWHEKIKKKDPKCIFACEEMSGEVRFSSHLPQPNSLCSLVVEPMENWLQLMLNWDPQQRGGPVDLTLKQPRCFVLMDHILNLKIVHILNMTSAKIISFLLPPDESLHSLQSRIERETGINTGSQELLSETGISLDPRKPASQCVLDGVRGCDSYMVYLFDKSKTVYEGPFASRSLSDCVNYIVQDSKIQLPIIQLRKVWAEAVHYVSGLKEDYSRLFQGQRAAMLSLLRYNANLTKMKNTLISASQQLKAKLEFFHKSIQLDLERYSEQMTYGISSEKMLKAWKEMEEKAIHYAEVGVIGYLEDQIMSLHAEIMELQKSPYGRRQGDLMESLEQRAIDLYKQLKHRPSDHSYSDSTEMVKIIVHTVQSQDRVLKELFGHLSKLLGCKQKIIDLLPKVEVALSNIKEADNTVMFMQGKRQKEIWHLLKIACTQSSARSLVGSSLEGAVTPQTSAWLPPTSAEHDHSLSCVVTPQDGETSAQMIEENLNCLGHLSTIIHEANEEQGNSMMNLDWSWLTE
Outcome Measure: residual activity (%)

[
  {
    "Molecule Smiles": "N#C/C(=C1/Nc2ccccc2S1)c1ccnc(NCCc2cccnc2)n1",
    "Outcome Measure": "residual activity",
    "Result Number": 88.6
  },
  {
    "Molecule Smiles": "O=C1NC(=O)c2c1c1c3ccccc3[nH]c1c1[nH]c3cc(Br)ccc3c21",
    "Outcome Measure": "residual activity",
    "Result Number": 81.5
  },
  {
    "Molecule Smiles": "O=C(O)c1ccc2c3c1cccc3c(=O)n1c3ccccc3nc21",
    "Outcome Measure": "residual activity",
    "Result Number": 114
  },
  {
    "Molecule Smiles": "CCCCc1c(-c2ccc(O)cc2)[nH]c2nccnc12",
    "Outcome Measure": "residual activity",
    "Result Number": 77.6
  },
  {
    "Molecule Smiles": "O=S(=O)(NCCNC/C=C/c1ccc(Br)cc1)c1cccc2cnccc12",
    "Outcome Measure": "residual activity",
    "Result Number": 104
  },
  {
    "Molecule Smiles": "COc1cc2c(N3CCN(C(=O)Nc4ccc(OC(C)C)cc4)CC3)ncnc2cc1OCCCN1CCCCC1",
    "Outcome Measure": "residual activity",
    "Result Number": 98.3
  }
]

----------
The following molecules are listed with their measured residual activity values.
target: CAMKK2 (human) (UniProt Q96RR4); experiment: radiometric filter-binding kinase assay, Kinase HotSpot; conditions: compound 0.5 µM; ATP 10 µM
Sequence (Q96RR4 whole entry, looked up): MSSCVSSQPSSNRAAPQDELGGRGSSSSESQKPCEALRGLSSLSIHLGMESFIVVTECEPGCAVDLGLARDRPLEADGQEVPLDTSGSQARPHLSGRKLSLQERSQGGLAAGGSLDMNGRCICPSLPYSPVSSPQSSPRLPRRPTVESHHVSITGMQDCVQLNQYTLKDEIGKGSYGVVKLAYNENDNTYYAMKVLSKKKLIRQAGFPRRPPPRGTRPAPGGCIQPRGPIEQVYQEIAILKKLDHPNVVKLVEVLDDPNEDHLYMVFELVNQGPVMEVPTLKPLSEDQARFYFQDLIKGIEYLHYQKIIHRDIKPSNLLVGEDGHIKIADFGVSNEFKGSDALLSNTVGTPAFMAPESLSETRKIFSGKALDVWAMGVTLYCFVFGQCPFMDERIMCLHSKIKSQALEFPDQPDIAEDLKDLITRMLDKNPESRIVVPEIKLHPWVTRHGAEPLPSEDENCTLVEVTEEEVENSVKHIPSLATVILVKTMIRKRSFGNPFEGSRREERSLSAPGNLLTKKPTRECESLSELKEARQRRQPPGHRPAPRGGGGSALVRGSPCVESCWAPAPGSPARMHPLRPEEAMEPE

[
  {
    "Molecule Smiles": "COc1cc2c(N3CCN(C(=O)Nc4ccc(OC(C)C)cc4)CC3)ncnc2cc1OCCCN1CCCCC1",
    "residual activity / %": 101
  },
  {
    "Molecule Smiles": "O=C(c1ccccc1)c1ccc(N2CCOCC2)cc1O",
    "residual activity / %": 111
  },
  {
    "Molecule Smiles": "N#C/C(=C1/Nc2ccccc2S1)c1ccnc(NCCc2cccnc2)n1",
    "residual activity / %": 80.4
  },
  {
    "Molecule Smiles": "O=c1cc(N2CCOCC2)oc2c(-c3ccccc3)cccc12",
    "residual activity / %": 83.3
  },
  {
    "Molecule Smiles": "O=C(O)c1ccc2c3c1cccc3c(=O)n1c3ccccc3nc21",
    "residual activity / %": 7.88
  },
  {
    "Molecule Smiles": "O=c1c(-c2ccc(F)cc2)c(-c2ccncc2)[nH]n1-c1ccc(Cl)cc1",
    "residual activity / %": 83
  }
]

----------
target: NTRK2 (human) (UniProt Q16620); assay: radiometric filter-binding kinase assay, Kinase HotSpot; conditions: compound 0.5 µM; ATP 10 µM
Sequence (Q16620 whole entry, looked up): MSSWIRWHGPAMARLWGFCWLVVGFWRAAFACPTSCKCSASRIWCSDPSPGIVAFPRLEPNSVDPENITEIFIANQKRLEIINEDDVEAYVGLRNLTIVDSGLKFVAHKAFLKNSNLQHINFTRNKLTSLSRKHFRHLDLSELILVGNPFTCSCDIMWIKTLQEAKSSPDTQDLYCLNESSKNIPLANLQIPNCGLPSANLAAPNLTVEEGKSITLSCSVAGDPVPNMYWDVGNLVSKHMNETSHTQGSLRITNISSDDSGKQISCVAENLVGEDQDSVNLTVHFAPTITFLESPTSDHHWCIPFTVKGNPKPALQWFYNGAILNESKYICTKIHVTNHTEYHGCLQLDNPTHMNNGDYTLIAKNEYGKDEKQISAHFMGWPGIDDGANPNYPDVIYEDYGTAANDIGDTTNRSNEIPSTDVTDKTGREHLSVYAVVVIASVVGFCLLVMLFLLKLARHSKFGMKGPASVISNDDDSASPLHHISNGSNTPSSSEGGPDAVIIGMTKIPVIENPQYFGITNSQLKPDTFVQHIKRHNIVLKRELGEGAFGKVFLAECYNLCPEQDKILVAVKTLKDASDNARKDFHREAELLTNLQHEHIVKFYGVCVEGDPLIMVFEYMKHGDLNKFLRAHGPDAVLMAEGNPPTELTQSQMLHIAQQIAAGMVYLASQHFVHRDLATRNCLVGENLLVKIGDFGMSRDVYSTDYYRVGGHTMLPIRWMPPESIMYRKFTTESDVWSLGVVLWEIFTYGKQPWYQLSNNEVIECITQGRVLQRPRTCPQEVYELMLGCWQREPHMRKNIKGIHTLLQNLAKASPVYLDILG

[
  {
    "Molecule Smiles": "O=C1NC(=O)c2cc(Nc3ccc(F)cc3)c(Nc3ccc(F)cc3)cc21",
    "residual activity [%]": 91.9
  },
  {
    "Molecule Smiles": "Nc1ncnc2c1cnn2-c1ccccc1",
    "residual activity [%]": 88.7
  },
  {
    "Molecule Smiles": "O=c1c(-c2ccc(F)cc2)c(-c2ccncc2)[nH]n1-c1ccc(Cl)cc1",
    "residual activity [%]": 88.5
  }
]
